Exercise: state measured In vitro activity (%) compared with native peptide, vs GIP for each of the binders provided.
TARGET OR SYSTEM: T1, human GIP receptor (human, UniProt P48546 22-466)
T1 sequence (looked up): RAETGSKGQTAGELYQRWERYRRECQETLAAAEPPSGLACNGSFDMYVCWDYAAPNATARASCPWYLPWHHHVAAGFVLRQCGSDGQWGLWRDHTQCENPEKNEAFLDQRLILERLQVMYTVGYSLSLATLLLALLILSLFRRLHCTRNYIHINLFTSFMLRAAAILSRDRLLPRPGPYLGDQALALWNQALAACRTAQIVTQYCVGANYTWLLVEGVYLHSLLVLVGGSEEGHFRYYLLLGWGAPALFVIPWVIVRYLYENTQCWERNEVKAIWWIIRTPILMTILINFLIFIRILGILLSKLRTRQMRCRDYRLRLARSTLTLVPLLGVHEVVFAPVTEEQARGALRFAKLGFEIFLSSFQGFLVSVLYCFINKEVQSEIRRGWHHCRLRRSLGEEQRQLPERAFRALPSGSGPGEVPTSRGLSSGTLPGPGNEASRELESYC
TEST METHOD NOTES: cell-based or functional assay
Bridge positions count the residues as written; N and C are the ends. Square brackets hold non-standard residues; d marks the D form. Ends that are not written are not given here. * marks the point of attachment. Acetyl(2-(4-imidazolyl)) = O=C(Cc1c[nH]cn1)*; Aib = CC(C)(N)C(=O)O

Recorded In vitro activity (%) compared with native peptide, vs GIP (binder H[Aib]QGTFTSDVSSYLLGQQQKEFIAWLVKGC [triple agonist of SEQ ID NO: 4] ): < 0.1%

Recorded In vitro activity (%) compared with native peptide, vs GIP (binder H[Aib]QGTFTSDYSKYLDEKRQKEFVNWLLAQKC (bridge 16-20) [triple agonist of SEQ ID NO: 34] ): 0.6%

Recorded In vitro activity (%) compared with native peptide, vs GIP (binder Y[Aib]QGTFTSDYSKYLDECRAKEFVQWLKNGGPSSGAPPPS (bridge 16-20) [triple agonist of SEQ ID NO: 24] ): < 0.1%

Recorded In vitro activity (%) compared with native peptide, vs GIP (binder [Acetyl(2-(4-imidazolyl))][Aib]QGTFTSDCSKYLDERAAQDFVQWLLDGGPSSGAPPPS (not fully specified) [triple agonist of SEQ ID NO: 63] ): < 0.1%

Recorded In vitro activity (%) compared with native peptide, vs GIP (binder Y[Aib]QGTFTSDYSKYLDEKAAKDFVQWLLDHHPSSGQPPPSC (bridge 16-20; also: ring between positions 16 and 20, type not given here) [triple agonist of SEQ ID NO: 77] ): 35.5%
